# credit: the RNAGym collection of RNA variant scans (doi:10.1021/acssynbio.7b00057)

B1: Pistol ribozyme (parent)
chain: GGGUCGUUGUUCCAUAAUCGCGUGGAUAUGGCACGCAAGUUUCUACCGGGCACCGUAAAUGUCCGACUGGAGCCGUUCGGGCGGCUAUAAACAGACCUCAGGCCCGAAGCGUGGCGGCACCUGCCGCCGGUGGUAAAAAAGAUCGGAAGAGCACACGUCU

Variants of: B1
Test: aptazyme ON/OFF ratio, guanine; higher = stronger switching; co-transcriptional cleavage with and without guanine
measured.property: aptazyme ON/OFF ratio
Numbers only.

As a guide, the following entries are already answered.
U8A G9C C12A C13U
1.25
U7A U8C G9A U11G C13U
1.22

Batch request: aptazyme ON/OFF ratio per item, same order as input.
1. U7G G9U U10C U11C C12U C13A
2. U7A U8C G9U U10C C12G C13U
3. U7G U8G U10C C12U
4. U8G G9U U10A U11G C12G C13U

Reply |
1: 1.25; 2: 1.51; 3: 1.52; 4: 1.37
